Entries and their IC50 values follow.
assay: Free radical scavenging activity (DPPH) assay; conditions: mean ± S.E (n = 3)
READOUT_KIND: IC50 (µM)

INSERT INTO measurements (molecule, assay_result) VALUES
  ('NS(=O)(=O)c1ccc(-n2c(SCC(=O)Nc3c[nH]c(=O)[nH]c3=O)nc3ccc(I)cc3c2=O)cc1 [Compound 15]', 136),
  ('CCOC(=O)c1cccc(NC(=O)CSc2nc3ccc(I)cc3c(=O)n2-c2ccc(S(N)(=O)=O)cc2)c1 [Compound 13]', 129),
  ('Cc1cc(NC(=O)CSc2nc3ccc(I)cc3c(=O)n2-c2ccc(S(N)(=O)=O)cc2)no1 [Compound 5]', 150);
